Biological target: Estrogen Receptor (ERα) in MCF-7 human ductal carcinoma breast cell line (Homo sapiens, UniProt P03372)
Construct: endogenous in cells; host or cells: MCF-7
Sequence (P03372 whole entry): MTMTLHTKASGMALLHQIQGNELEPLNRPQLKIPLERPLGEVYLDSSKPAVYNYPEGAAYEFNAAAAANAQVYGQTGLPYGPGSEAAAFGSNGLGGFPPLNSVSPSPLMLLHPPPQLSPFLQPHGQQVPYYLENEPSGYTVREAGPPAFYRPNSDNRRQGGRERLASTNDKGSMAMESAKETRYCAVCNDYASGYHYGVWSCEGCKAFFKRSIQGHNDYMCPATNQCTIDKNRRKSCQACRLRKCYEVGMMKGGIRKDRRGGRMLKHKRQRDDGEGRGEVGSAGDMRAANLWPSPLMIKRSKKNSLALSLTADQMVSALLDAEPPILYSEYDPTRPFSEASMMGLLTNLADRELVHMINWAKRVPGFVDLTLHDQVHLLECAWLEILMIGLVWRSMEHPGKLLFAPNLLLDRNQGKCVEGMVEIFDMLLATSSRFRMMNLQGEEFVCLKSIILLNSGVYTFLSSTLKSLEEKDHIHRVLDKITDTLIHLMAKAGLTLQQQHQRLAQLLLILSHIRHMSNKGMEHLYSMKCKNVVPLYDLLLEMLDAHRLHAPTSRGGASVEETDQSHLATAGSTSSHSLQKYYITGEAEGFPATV
Experiment: MCF-7 ER degradation assay (cell based immuno-fluorescence)
Conditions: MCF-7 cells, 18-22 hours incubation, 50% reduction of ERα expression; single experiment or average of two or more; read-out: MCF-7 ER degradation IC50
Experimental: MCF-7 ER Degradation Assay The ability of compounds to down-regulate Estrogen Receptor (ER) numbers was assessed in a cell based immuno-fluorescence assay using the MCF-7 human ductal carcinoma breast cell line. […] Cells were syringed once using a sterile 18 G×1.5 inch (1.2×40 mm) broad gauge needle and cell density was measured using a Coulter Counter (Beckman). […]
Exercise: state measured DC50 for each of the molecules provided.
# number only, unit nM dropped from output

Prompt: Give its DC50 value. Item: Cc1ncsc1-c1ccc([C@@H](CN)NC(=O)[C@@H]2C[C@@H](O)CN2C(=O)[C@@H](NC(=O)COCCOCCOCCOc2cc(F)c([C@@H]3c4[nH]c5ccccc5c4C[C@@H](C)N3CC(C)(C)F)c(F)c2)C(C)(C)C)cc1
Response: 0.9

Prompt: Give its DC50 value. Item: Cc1ncsc1-c1ccc(CNC(=O)[C@@H]2C[C@@H](O)CN2C(=O)[C@@H](NC(=O)COCCCCCN(C)CCOc2cc(F)c([C@@H]3c4[nH]c5ccccc5c4C[C@@H](C)N3CC(C)(C)F)c(F)c2)C(C)(C)C)cc1
Response: 0.9
